Biological target: T1, Human B7-H4 with HisFlag tag (huB7-H4-his) (human, UniProt Q7Z7D3 25-258)
T1 construct: also called HuB7-H4 His protein; huB7-H4-HF
T1 sequence: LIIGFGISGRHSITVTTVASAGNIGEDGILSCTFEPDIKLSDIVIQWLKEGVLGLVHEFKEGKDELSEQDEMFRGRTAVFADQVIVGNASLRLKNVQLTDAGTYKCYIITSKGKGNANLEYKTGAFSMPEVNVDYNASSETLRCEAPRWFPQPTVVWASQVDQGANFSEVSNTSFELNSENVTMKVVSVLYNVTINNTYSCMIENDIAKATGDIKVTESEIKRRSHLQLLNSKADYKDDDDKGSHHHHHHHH
Test: indirect ELISA, plate coated with HuB7-H4 His
quantity: pEC50
Note on pEC50: it is the negative log10 of concentration, concentration in mol/L.

**Q:** Using the record for chimeric antibody 2A10 (antibody, human IgG1, V domains shown) VH: EVQLVESGGGFVKPGGSLKLSCAASGFTFSTFGMSWVRQTPDKRLEWVAGISPGGSYTYYPDTVKGRFTISRDNARNTLYLQMSSLRSEDSAMYYCTRGRSVWGTGTTVTVSS VL: DILMTQSPSSMSVSLGDTVSITCHASQDISSNIGWLQQKPGKSFKGLIYHGTTLEDGIPSRFSGSGSGADYSLTISSLESEDFADYYCVQSAQFPWTFGGGTKLEIK , report its pEC50.
**A:** 10.15
